Measured values drawn from paper PMC3556730 for this set.

Biological target: UniProt:P35363
Test: [3H]Ketanserin competition binding, mouse striatum membranes
Details: Fig. 1C single experiment; control; one-site model
PROPERTY_MEASURED: pKi
// returns pKi (minus log10 of molar concentration), number only

Query: Report pKi for COc1cc(CC(C)N)c(OC)cc1I (racemic) [DOI, (+/−)-2,5-dimethoxy-4-iodoamphetamine] please.
Reply: 7.02

###

Target: 5-HT2AR (Mus musculus, UniProt P35363)
Sequence (P35363 whole entry): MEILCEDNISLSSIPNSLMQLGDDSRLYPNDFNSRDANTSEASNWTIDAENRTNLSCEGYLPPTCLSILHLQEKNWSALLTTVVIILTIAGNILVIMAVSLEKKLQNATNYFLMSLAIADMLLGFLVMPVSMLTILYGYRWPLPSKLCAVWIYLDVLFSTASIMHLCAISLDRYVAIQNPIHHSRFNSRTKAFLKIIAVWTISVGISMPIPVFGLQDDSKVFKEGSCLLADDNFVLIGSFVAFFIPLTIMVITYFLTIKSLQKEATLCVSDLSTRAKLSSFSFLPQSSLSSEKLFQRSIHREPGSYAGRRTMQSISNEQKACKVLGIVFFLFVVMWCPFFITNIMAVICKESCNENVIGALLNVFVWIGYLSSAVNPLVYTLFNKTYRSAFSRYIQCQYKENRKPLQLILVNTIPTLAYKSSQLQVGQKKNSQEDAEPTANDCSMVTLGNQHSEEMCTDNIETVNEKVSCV
Test: [3H]Ketanserin competition binding, mouse striatum membranes
Details: read-out: Ki-low; mouse striatum; with raclopride (10^−6 M); one-site model; mean ± SEM
PROPERTY_MEASURED: pKi
// returns pKi (minus log10 of molar concentration), number only

Query: Give recorded pKi with 5-HT2AR (Mus musculus, UniProt P35363) for the following compound: COc1cc(CC(C)N)c(OC)cc1I (racemic) [DOI, (+/−)-2,5-dimethoxy-4-iodoamphetamine]
Reply: 6.18
